Molecular target: Xanthine oxidase from bovine milk (Bos taurus, UniProt P80457)
Sequence (P80457 whole entry): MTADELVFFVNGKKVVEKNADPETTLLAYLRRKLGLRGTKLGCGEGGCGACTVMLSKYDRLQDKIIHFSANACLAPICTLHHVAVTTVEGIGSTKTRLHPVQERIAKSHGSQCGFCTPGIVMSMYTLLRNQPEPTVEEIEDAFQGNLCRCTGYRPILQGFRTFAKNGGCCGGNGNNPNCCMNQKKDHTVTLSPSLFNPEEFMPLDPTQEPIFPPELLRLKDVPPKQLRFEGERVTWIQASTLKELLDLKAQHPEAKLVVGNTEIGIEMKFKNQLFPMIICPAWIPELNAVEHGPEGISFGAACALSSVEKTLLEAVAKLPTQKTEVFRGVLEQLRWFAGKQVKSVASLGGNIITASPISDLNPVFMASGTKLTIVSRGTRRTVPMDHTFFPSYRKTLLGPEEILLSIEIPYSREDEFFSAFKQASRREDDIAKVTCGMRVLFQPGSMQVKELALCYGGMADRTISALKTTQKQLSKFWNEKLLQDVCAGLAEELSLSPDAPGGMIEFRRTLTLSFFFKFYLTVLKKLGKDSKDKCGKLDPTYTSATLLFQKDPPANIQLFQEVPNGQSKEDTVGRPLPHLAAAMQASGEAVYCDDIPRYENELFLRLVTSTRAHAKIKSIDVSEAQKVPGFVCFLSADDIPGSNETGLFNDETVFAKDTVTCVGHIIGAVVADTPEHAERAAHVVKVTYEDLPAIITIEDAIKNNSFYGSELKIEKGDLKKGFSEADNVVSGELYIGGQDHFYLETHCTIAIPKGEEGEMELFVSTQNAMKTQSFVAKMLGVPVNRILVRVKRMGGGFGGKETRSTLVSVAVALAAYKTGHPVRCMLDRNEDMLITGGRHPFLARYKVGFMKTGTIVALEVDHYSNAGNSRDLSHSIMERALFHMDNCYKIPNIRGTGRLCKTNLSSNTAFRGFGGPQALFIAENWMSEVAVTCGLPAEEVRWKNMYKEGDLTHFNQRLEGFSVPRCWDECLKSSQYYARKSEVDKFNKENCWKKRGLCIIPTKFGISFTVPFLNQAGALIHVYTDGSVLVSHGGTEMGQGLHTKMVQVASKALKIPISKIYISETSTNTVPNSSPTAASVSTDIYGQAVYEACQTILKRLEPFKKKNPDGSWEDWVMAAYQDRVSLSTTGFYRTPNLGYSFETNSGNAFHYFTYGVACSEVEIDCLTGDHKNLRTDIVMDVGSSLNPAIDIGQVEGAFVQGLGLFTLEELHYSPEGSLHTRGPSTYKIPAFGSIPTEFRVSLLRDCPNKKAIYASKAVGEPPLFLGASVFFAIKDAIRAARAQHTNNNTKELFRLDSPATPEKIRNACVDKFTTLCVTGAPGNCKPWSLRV
measurement_name: pIC50
# pIC50: negative log10 of molar concentration; output just the value

Give the reported pIC50 for O=C(O)c1cccnc1Nc1cccc(C(F)(F)F)c1 [Niflumic acid, niflumic acid] (system: Xanthine oxidase from bovine milk (Bos taurus, UniProt P80457)).
5.56

====

Reported pKi values, Xanthine oxidase from bovine milk (Bos taurus).
# pKi: negative log10 of molar concentration; output just the value

- compound: "O=C(O)c1cccnc1Nc1cccc(C(F)(F)F)c1 [Niflumic acid, niflumic acid]"
  experimental_target: "Xanthine oxidase from bovine milk (Bos taurus)"
  pKi: 6.43

Switching to the query record.
// query pKi value for entry O=C(O)c1ccc(Nc2cccc(C(F)(F)F)c2)nc1 [NFA impurity E]
7.52
